Measured cell number, listed per entry for reference.
test system: TDF; test: cell number relative to DMSO (% of DMSO); higher = more cells (less growth inhibition / toxicity); conditions: concentration: 10 µM; 24 h

{"columns": ["Compound", "System", "cell number"],
 "data": [
  ["CC(Cc1ccc(O)c(O)c1)(NN)C(=O)O (stereo not drawn) [S-(-)-Carbidopa]", "TDF", 112],
  ["Cc1cnc(-c2cnc(NCCNc3ccc(C#N)cn3)nc2-c2ccc(Cl)cc2Cl)[nH]1", "TDF", 74.4],
  ["CCCC(CCC)C(N)=O [2-propylpentanamide]", "TDF", 106],
  ["O.c1cnc2c(c1)ccc1cccnc12 [1,10-Phenanthroline monohydrate]", "TDF", 44.8],
  ["CCCCCC=CCC(O)C=Cc1cccc(CC(O)CCCCO)n1 (stereo not given)", "TDF", 108],
  ["Cc1cc(N)c2ccccc2[n+]1CCCCCCCCCCCCCC[n+]1c(C)cc(N)c2ccccc21.[I-].[I-]", "TDF", 102],
  ["OC[C@H]1NC[C@@H](O)[C@@H]1O", "TDF", 97.9],
  ["C=Cc1c(C)c2cc3[nH]c(cc4nc(cc5nc(cc1[nH]2)C(C)=C5CCC(=O)O)C(CCC(=O)O)=C4C)c(C)c3C=C [Protoporphyrin IX disodium]", "TDF", 86.7],
  ["CCCCCC=CCC=CCC=CC=CC(O)CCCC(=O)O (racemic)", "TDF", 93],
  ["CCCC(CCC)C(=O)NO [N-hydroxy-2-propylpentanamide]", "TDF", 102],
  ["CC1(COc2ccc(CC3SC(=O)NC3=O)cc2)CCCCC1 (stereo not given)", "TDF", 105],
  ["O=C1NC(C(=O)O)CS1 (stereo not given)", "TDF", 110],
  ["CC1C2CCC3C4CC=C5CC(N(C)C)CCC5(C)C4CCC32CN1C (stereo not given)", "TDF", 104],
  ["O=C(Nc1ccc(Cl)cc1)C1CCCN(C(=O)c2cccc(-c3ccco3)c2)C1 (stereo not given)", "TDF", 98.7],
  ["CC(C=CC1=C(C)CCCC1(C)C)=CC=CC(C)=CC(=O)O [Retinoic Acid]", "TDF", 109],
  ["CCCCCC=CCC=CCCCCCCCC(=O)O", "TDF", 101],
  ["COC(=O)C1C(O)CCC2CN3CCc4c([nH]c5ccccc45)C3CC21 (stereo not given)", "TDF", 94.3],
  ["CCC=CCC(O)C=CC=CCC=CCC=CCCCC(=O)O (stereo not given)", "TDF", 102],
  ["COc1ccc(CNC(=O)Nc2ncc([N+](=O)[O-])s2)cc1", "TDF", 106],
  ["CN1CCc2cc3c(cc2C(=O)Cc2ccc4c(c2C1)OCO4)OCO3", "TDF", 108],
  ["O=C(O)Cc1nn(Cc2nc3cc(C(F)(F)F)ccc3s2)c(=O)c2ccccc12", "TDF", 90.1],
  ["COCc1nc2c([nH]1)c(=O)n(C)c(=O)n2CC(C)C", "TDF", 110],
  ["CCOC(=O)C12CC1C(=NO)c1ccccc1O2 (stereo not given)", "TDF", 105],
  ["COc1ccc(-c2coc3cc(O)cc(O)c3c2=O)cc1", "TDF", 97.4],
  ["CS(=O)(=O)CCNCc1nc(-c2ccc3ncnc(Nc4ccc(OCc5cccc(F)c5)c(Cl)c4)c3c2)cs1.Cl.Cl", "TDF", 99.7],
  ["NC(CCC(=O)NC(CSN=O)C(=O)NCC(=O)O)C(=O)O (stereo not given)", "TDF", 102],
  ["Cc1c(Cl)cccc1Nc1ccccc1C(=O)O", "TDF", 105],
  ["O=C(C=Cc1ccc(O)c(O)c1)OCCc1ccccc1 [Caffeic acid phenethyl ester]", "TDF", 81],
  ["COC(=O)Nc1nc2ccc(C(=O)c3cccs3)cc2[nH]1", "TDF", 10.9],
  ["Nc1nc(Nc2ccccc2)nc2c1ncn2C1OC(CO)C(O)C1O (stereo not given)", "TDF", 100],
  ["Cl.Cl.c1ccc2c3c([nH]c2c1)C1C2CCC(C4CCCNC42)N1CC3 (stereo not given)", "TDF", 100],
  ["COC(=O)[C@@H](N)Cc1ccc(O)c(O)c1.Cl [L-3,4-Dihydroxyphenylalanine methyl ester hydrochloride]", "TDF", 110],
  ["CNC(C)C1CCC(N)C(OC2C(N)CC(N)C(OC3OCC(C)(O)C(NC)C3O)C2O)O1 (stereo not given)", "TDF", 95.4],
  ["CN(C)CCC=C1c2ccccc2CCc2ccccc21.Cl [Amitriptyline hydrochloride]", "TDF", 100],
  ["COc1cc(OC)c(C=C2C(=O)Nc3ccccc32)c(OC)c1", "TDF", 11.2]
]}

###

Measured cell number, listed per entry for reference.
test system: TDF; test: cell number relative to DMSO (% of DMSO); higher = more cells (less growth inhibition / toxicity); settings: concentration: 10 µM; 24 h

{"columns": ["Compound", "System", "cell number"],
 "data": [
  ["CCCCCC=CCC=CCCCCCCCCC(=O)O [10(Z),13(Z)-Nonadecadienoic acid]", "TDF", 96.2],
  ["CCCCCCCCCCCCCCCC(O)C(N)CO (centres undefined) [Dihydrosphingosine]", "TDF", 94.5],
  ["S=C([S-])N1CCCC1.[NH4+] [Ammonium pyrrolidinedithiocarbamate]", "TDF", 1.9],
  ["CCN(CCO)CCCC(C)Nc1ccnc2cc(Cl)ccc12.O=S(=O)(O)O (centres undefined)", "TDF", 91.2],
  ["Cc1ccc(F)cc1C(=O)Nc1ccc(C(=O)N2Cc3cccn3Cc3ccccc32)c(Cl)c1", "TDF", 95.3],
  ["CC(C)=CCC(O)C1=CC(=O)c2c(O)ccc(O)c2C1=O (centres undefined) [Shikonin]", "TDF", 38.8],
  ["CCCc1nc2c(C)cc(-c3nc4ccccc4n3C)cc2n1Cc1ccc(-c2ccccc2C(=O)O)cc1 [Telmisartan]", "TDF", 97.5],
  ["CCCCCCCCCCCC=CCCCCCC(=O)O [7(E)-Nonadecenoic acid]", "TDF", 104],
  ["CC(=O)NC(Cc1c[nH]c2ccccc12)C(=O)OCc1cc(C(F)(F)F)cc(C(F)(F)F)c1 (centres undefined)", "TDF", 103]
]}

###

tested on: HCC1569; assay: cell number relative to DMSO (% of DMSO); higher = more cells (less growth inhibition / toxicity); details: concentration: 10 µM; 24 h

{"columns": ["Compound", "cell number"],
 "data": [
  ["CCOC(=O)c1c2c3c(cccc3[nH]c1=O)C(=O)c1ccccc1-2", 99.7],
  ["CNCC(O)c1ccc(O)c(O)c1.O=C(O)C(O)C(O)C(=O)O [L-(+)-Epinephrine tartrate]", 104],
  ["COc1ccc(S(=O)(=O)N(CCO)c2ccccc2CN(C)CC=Cc2ccc(Cl)cc2)cc1", 74.4],
  ["CNCCNS(=O)(=O)c1cccc2cnccc12.Cl.Cl [H-8 dihydrochloride]", 105],
  ["CCCCCC#CCC#CCC#CCC#CCCCC(=O)O", 104],
  ["CC1=C(C(=O)O)N2C(=O)C(NC(=O)C(N)c3ccccc3)C2SC1 (configuration not stated) [Cephalexin hydrate]", 104],
  ["Cl.O=c1cc(N2CCOCC2)oc2c(-c3ccccc3)cccc12", 87.7],
  ["Clc1ccc(C(Cn2ccnc2)OCc2ccsc2Cl)c(Cl)c1 (configuration not stated)", 102],
  ["CCC(=C(c1ccccc1)c1ccc(OCCN(C)C)cc1)c1ccccc1", 103],
  ["COc1ccc2cc(C(C)C(=O)[O-])ccc2c1.[Na+] (single isomer, unassigned; (-)) [(-)-Naproxen sodium]", 105],
  ["CC(=O)NCCc1c[nH]c2ccc(O)cc12 [N-Acetyl-5-hydroxytryptamine]", 101],
  ["O=C(O)CCCC=CCC1C(=O)CC(O)C1C=CC(O)CCc1ccccc1 (configuration not stated) [17-Phenyl-trinor-prostaglanding E2]", 105],
  ["CC(OC(=O)c1ccc(F)cc1F)C(=O)N(C)C1CCS(=O)(=O)C1 (configuration not stated)", 48.9],
  ["Cc1ccc(NC2=CC(=O)c3sc(C)nc3C2=O)cc1 [Cdk4 Inhibitor III]", 26.6],
  ["CCCCCC=CCC=CCC=CC=CC1CCCC(=O)O1 (racemic)", 106],
  ["CCCCCCCCCCCCCCCCOCC(COP(=O)([O-])OCC[N+](C)(C)C)OC (configuration not stated)", 101],
  ["Nc1ncnc2c1ncn2C1CCCC1", 102]
]}

###

system: HCC1569; test: H1.0 immunofluorescence intensity relative to DMSO (% of DMSO); higher = stronger H1.0 induction, active = 140 or more; settings: concentration: 10 µM; 24 h
Readout Kind: H1.0 immunofluorescence intensity

{"columns": ["Compound", "Readout Kind", "Result"],
 "data": [
  ["CN1C2CCC1CC(OC(c1ccccc1)c1ccccc1)C2.CS(=O)(=O)O (stereo not given) [Benztropine mesylate]", "H1.0 immunofluorescence intensity", "97.7 (inactive)"],
  ["O=c1[nH]c2cc([N+](=O)[O-])c([N+](=O)[O-])cc2[nH]c1=O", "H1.0 immunofluorescence intensity", "91.4 (inactive)"],
  ["CCc1cccc2c3c([nH]c12)C(CC)(CC(=O)O)OCC3 (stereo not given) [Etodolac]", "H1.0 immunofluorescence intensity", "105 (inactive)"],
  ["C=C1CCC(O)CC1=CC=C1CCCC2(C)C1CCC2C(C)CCCC(C)(C)O (stereo not given) [Calcifediol]", "H1.0 immunofluorescence intensity", "120 (inactive)"],
  ["C[Se]CCC(N)C(=O)O (stereo not given) [Selenomethionine]", "H1.0 immunofluorescence intensity", "105 (inactive)"],
  ["O=c1cc(N2CCOCC2)oc2c1ccc1ccccc12 [NU 7026 - 2-(4-Morpholinyl)-4H-naphthol[1,2-b]pyran-4-one]", "H1.0 immunofluorescence intensity", "105 (inactive)"],
  ["CCCCN1CCCC[C@H]1C(=O)Nc1c(C)cccc1C.Cl", "H1.0 immunofluorescence intensity", "108 (inactive)"],
  ["CC(C)(C#N)c1ccc(N2C(=O)OCc3cnc4ccc(-c5cnc6ccccc6c5)cc4c32)cc1", "H1.0 immunofluorescence intensity", "206 (active)"],
  ["NC(=O)CC[C@H](N)C(=O)O [L-Glutamine]", "H1.0 immunofluorescence intensity", "105 (inactive)"],
  ["CC(CN(C)C)CN1c2ccccc2Sc2ccc(C#N)cc21 (stereo not given)", "H1.0 immunofluorescence intensity", "108 (inactive)"],
  ["CNC1CC2OC(C)(C1OC)n1c3ccccc3c3c4c(c5c6ccccc6n2c5c31)C(=O)NC4O (stereo not given)", "H1.0 immunofluorescence intensity", "121 (inactive)"],
  ["CCC(C)C(=O)OC1CC(O)C=C2C=CC(C)C(CCC3CC(O)CC(=O)O3)C21 (stereo not given) [Pravastatin Lactone]", "H1.0 immunofluorescence intensity", "110 (inactive)"],
  ["CNCCC(Oc1ccc(C(F)(F)F)cc1)c1ccccc1.Cl (stereo not given) [Fluoxetine hydrochloride]", "H1.0 immunofluorescence intensity", "122 (inactive)"],
  ["NC(=S)NCCCC(N)C(=O)O (stereo not given) [Thiocitrulline]", "H1.0 immunofluorescence intensity", "95.7 (inactive)"],
  ["CC1(C)CCC(NC(=O)C(N)CCC(=O)O)CC1 (stereo not given)", "H1.0 immunofluorescence intensity", "91.7 (inactive)"],
  ["CC(=O)NCCc1ccc(O)c(O)c1 [N-Acetyldopamine monohydrate]", "H1.0 immunofluorescence intensity", "91.4 (inactive)"],
  ["C=C[C@]1(C)C[C@@H](OC(=O)CO)[C@]2(C)[C@H](C)CC[C@]3(CCC(=O)[C@H]32)[C@@H](C)[C@@H]1O", "H1.0 immunofluorescence intensity", "95.9 (inactive)"],
  ["CC(C)COCC(CN(Cc1ccccc1)c1ccccc1)N1CCCC1.Cl (stereo not given) [Bepridil hydrochloride]", "H1.0 immunofluorescence intensity", "88.7 (inactive)"],
  ["O=C1Nc2ccccc2C1=Cc1c(Cl)[nH]c2ccccc12 [Cdk1 Inhibitor]", "H1.0 immunofluorescence intensity", "143 (active)"],
  ["CN(C)[C@@H](CCOc1cccc2ccccc12)c1ccccc1.Cl", "H1.0 immunofluorescence intensity", "142 (active)"],
  ["O=C(NC(NC(=S)Nc1ccc(F)c([N+](=O)[O-])c1)C(Cl)(Cl)Cl)C(c1ccccc1)c1ccccc1 (stereo not given) [ATM/ATR Kinase Inhibitor]", "H1.0 immunofluorescence intensity", "179 (active)"],
  ["Nc1nc(Cl)nc2c1ncn2C1OC(CO)C(O)C1F (stereo not given) [Clofarabine]", "H1.0 immunofluorescence intensity", "93.5 (inactive)"],
  ["CCCCCN(CCCCC)C(=O)C(CCC(=O)O)NC(=O)c1ccc(Cl)c(Cl)c1 (stereo not given) [Lorglumide]", "H1.0 immunofluorescence intensity", "96.4 (inactive)"],
  ["CCOC(=O)C1OC1C(=O)NC(CC(C)C)C(=O)NCCC(C)C (stereo not given)", "H1.0 immunofluorescence intensity", "97.9 (inactive)"],
  ["CC(=O)Oc1ccccc1C(=O)Oc1ccc(CO[N+](=O)[O-])cc1 [4-[(nitrooxy)methyl]phenyl 2-(acetyloxy)benzoate]", "H1.0 immunofluorescence intensity", "143 (active)"],
  ["CC1OC(Oc2c(-c3ccc(O)c(O)c3)oc3cc(O)cc(O)c3c2=O)C(O)C(O)C1O (stereo not given) [Quercitrin]", "H1.0 immunofluorescence intensity", "99.1 (inactive)"],
  ["CC12CCC(=O)C=C1CCC1C2C(=O)CC2(C)C1CCC2(O)C(=O)CO (stereo not given) [Cortisone]", "H1.0 immunofluorescence intensity", "97 (inactive)"],
  ["O=P(O)(O)C(O)(Cn1ccnc1)P(=O)(O)O [Zoledronic acid]", "H1.0 immunofluorescence intensity", "100 (inactive)"],
  ["CNC1(C)C2CCC(C2)C1(C)C (stereo not given) [Mecamylamine]", "H1.0 immunofluorescence intensity", "107 (inactive)"],
  ["CCC1OC(=O)C(C)C(OC2CC(C)(OC)C(O)C(C)O2)C(C)C(OC2OC(C)CC(N(C)C)C2O)C(C)(OC)CC(C)C(=O)C(C)C(O)C1(C)O (stereo not given) [Clarithromycin]", "H1.0 immunofluorescence intensity", "94.6 (inactive)"],
  ["CN1CCC(=C2c3ccccc3C=Cc3ccccc32)CC1 [Cyproheptadine]", "H1.0 immunofluorescence intensity", "108 (inactive)"],
  ["CN1CCN(C2=Nc3ccccc3Oc3ccc(Cl)cc32)CC1.O=C(O)CCC(=O)O [Loxapine succinate]", "H1.0 immunofluorescence intensity", "110 (inactive)"],
  ["CC=CCC=CCCC(=O)C1OC1C(N)=O (stereo not given) [Cerulenin]", "H1.0 immunofluorescence intensity", "111 (inactive)"],
  ["O=C(O)Cc1c[nH]c2ccc(O)cc12 [5-Hydroxyindolacetic acid]", "H1.0 immunofluorescence intensity", "97.9 (inactive)"],
  ["COc1cc(=O)n(C)c2c(OCC(O)C(C)(C)O)cccc12 (stereo not given) [Foliosidine]", "H1.0 immunofluorescence intensity", "93.7 (inactive)"]
]}
